Tested on: Hepatotoxicity
Assay: FDA HLAED, gamma-glutamyl transferase (GGT) increase
Conditions: human
test-readout: GGT Increase - Number of Reports

Below, each entry is followed by its recorded GGT Increase - Number of Reports result.
| molecule | GGT Increase - Number of Reports |
| --- | --- |
| Clc1cccc(Cl)c1N=C1NCCN1 | >= 4 |
| O=S(=O)([O-])CCS.[Na+] | < 4 |
| COCCCC/C(=N\OCCN)c1ccc(C(F)(F)F)cc1 | < 4 |
| CC[C@@]1(O)C(=O)OCc2c1cc1n(c2=O)Cc2cc3c(CN(C)C)c(O)ccc3nc2-1 | < 4 |
| O=C(NCC1CCCCN1)c1cc(OCC(F)(F)F)ccc1OCC(F)(F)F (stereo unspecified) [FLECAINIDE] | < 4 |

The record that follows has no GGT Increase - Number of Reports shown yet.
Recorded result, "C[C@H](CS)C(=O)N1CCC[C@H]1C(=O)O" , GGT Increase - Number of Reports: < 4
